These entries and their values trace back to ChEMBL document CHEMBL1131438.

- assay_explanation: In vitro half-life at 37 degree Centigrade in phosphate-buffered saline(PBS; pH =7-7.2)
- Type: ADME
Reported half-life by item:

The following compounds have reported results that may help.
[
  {
    "compound": "NC1=Nc2nc[nH]c2C(OCc2ccncc2)N1 (stereo not drawn)",
    "half-life": "> 48 h"
  },
  {
    "compound": "NC1=Nc2nc[nH]c2C(OCc2cnc3c(c2)OCO3)N1 (stereo not drawn)",
    "half-life": "> 48 h"
  },
  {
    "compound": "NC1=Nc2nc[nH]c2C(OCc2ccc(Cl)nc2)N1 (stereo not drawn)",
    "half-life": "> 48 h"
  },
  {
    "compound": "NC1=NC(OCc2ccc[n+]([O-])c2)c2[nH]cnc2N1 (stereo not drawn)",
    "half-life": "> 48 h"
  },
  {
    "compound": "Cn1cncc1COC1N=C(N)Nc2[nH]cnc21 (stereo not drawn)",
    "half-life": "0.19 h"
  }
]

Give the measured half-life of NC1=Nc2nc[nH]c2C(OCc2ccc(Br)s2)N1 (stereo not drawn) .
1.95 h

Give the measured half-life of NC1=Nc2nc[nH]c2C(OCc2cnsc2)N1 (stereo not drawn) .
> 48 h

Give the measured half-life of NC1=NC(OCc2ccnc(Cl)c2)c2[nH]cnc2N1 (stereo not drawn) .
> 48 h

Give the measured half-life of NC1=NC(OCc2cccs2)c2[nH]cnc2N1 (stereo not drawn) .
0.67 h

Give the measured half-life of NC1=Nc2nc[nH]c2C(OCc2cccnc2)N1 (stereo not drawn) .
> 48 h
